Test system: MS2 coat protein
ASSAY DETAILS: apparent KD of MS2 coat protein; designed switch direction (-1 OFF switch, 1 ON switch): 1; higher = weaker reporter binding
TEST CONDITIONS: input ligand: FMN 200 uM
Outcome: True for apparent KD of MS2 coat protein of at least 90 nM; False for anything lower.

Solved entries (count: 8):
{"columns": ["MONOMER SEQUENCE", "ANSWER LABEL"],
 "data": [
  ["AGAGGAGGAGCAGGAUAUUCGAAGAAGGACGUGGAAGAAGGGUUCAUGCGAUGACAUGAGGAUCACCCAUGUACCGCGCGAGGA [AK SSNG1-V2-12] (Eterna round: R96, puzzle: Same State NG 1)", "False"],
  ["AGGAGACAUGAGGAUCACCCAUGUACUUCAUAAGGAGAGAACGAGGAUAUGUAGAGAGAGAGGGAACAGAAGGUGUGAGAGGAA [Default title] (Eterna round: R96, puzzle: Same State NG 3)", "False"],
  ["AGCUUUUAAUUAGGAUAUGGUCACAUGAGGAUCACCCAUGUAACGAUGAUAUAAUGUGGUCAAGACUAGAAGGGAUUGCUAACA [SameState NG2 #68] (Eterna round: R96, puzzle: Same State NG 2)", "True"],
  ["AUGUAUCGCCUCGAGGAUAUCCUGUCAUGCACAUGAGGAUCACCCAUGUAAGAGCGAGUUUAAUGGGAGAAGGCGAGUUCUCGGU [JR_SS002_Sub1707] (Eterna round: R96, puzzle: Same State 2)", "False"],
  ["GGAGCCGGUACUGAGGAUAUUCAUAUUAAAACAUGAGGAUCACCCAUGUGGGCCAGAAGGCCUUGGGAGAAGGCAGACCAGCUCG [Atgexeedri - 3] (Eterna round: R96, puzzle: Same State 2)", "False"],
  ["AGAACAUGACGAGGAUAUGGAACAUGAGGAUCACCCAUGUAUGUUCCAUAACGCGAAUAAAGAAUCCAGAAGGCGUCGUGAAGA [Mat - Same State NG 2 - JL mod - D32] (Eterna round: R96, puzzle: Same State NG 2)", "False"],
  ["UUUAGAUUCAGAGGAUAUUGAUGUUGUAAGUAACAAGAAGGCUGAAUGGUUAGAAUUGUUUAUUAACAUGAGGAUCACCCAUGU [JR_SSNG1_Sub009] (Eterna round: R96, puzzle: Same State NG 1)", "False"],
  ["GCGAUAUGAUGCUACAUGAGGAUCACCCAUGUAGCGACAGCUAAGGAUAUUGGAAAGGGAGGAGACGAGAAGGUAGGGUCACGC [AK SSNG3-V2-24.1] (Eterna round: R96, puzzle: Same State NG 3)", "False"]
]}

Assess whether reported apparent KD of MS2 coat protein for UUGAAGAAUUAAGGAUAUUGAAUACAUAUGUUUAACAUGAGGAUCACCCAUGUGGGUUGCGGUGUCGAGAAGGUAAAUUAAUAG [Mat - same State NG 2 - JL mod - D94] (Eterna round: R96, puzzle: Same State NG 2) sits at 90 nM or higher.
True

Assess whether reported apparent KD of MS2 coat protein for AGCCGAAGCACAGGAUAUACAUGUAUACAUGAGGAUCACCCAUGUAGCAACACGUGGUAGUGAUUGUAGAAGGGUGCUCGGCGC [Omei SS(NG)2 Cv14] (Eterna round: R96, puzzle: Same State NG 2) sits at 90 nM or higher.
False

Assess whether reported apparent KD of MS2 coat protein for GUGGUCAGACAUGAGGAUCACCCAUGUGGAAUAAAUAAGGAAUAGGAUAUGGAAUAUAGGAUAUACCAGAAGGAUUGGUUGGUG (Eterna round: R96, puzzle: Same State NG 3) sits at 90 nM or higher.
True

Assess whether reported apparent KD of MS2 coat protein for GCUCGACGUAUGGCCUACAUGAGGAUCACCCAUGUGAUUGGGCAGGAUAUCUAGAUGCAGGAUGUAGAGAAGGGCCCGUCGAGC [SameState NG3 #47] (Eterna round: R96, puzzle: Same State NG 3) sits at 90 nM or higher.
True

Assess whether reported apparent KD of MS2 coat protein for CGUCCAGCCUGAGCUGGACAAAAGCAUGUACAUGAGGAUCACCCAUGUUCAUGUACAAGCUUUUUGCUCGUCUUACC [salish99_208a_r3_094x] (Eterna round: R96, puzzle: Sensor for hsa-mir-208a) sits at 90 nM or higher.
True

Assess whether reported apparent KD of MS2 coat protein for UGGUGUAACAUGAGGAUCACCCAUGUCACAACCCGGAUAGAGUAGGAUAUGGGCUGAUCACGCAUCCAGAAGGGCUCAUACUUU [Eternabot solution 19] (Eterna round: R96, puzzle: Same State NG 3) sits at 90 nM or higher.
False

Assess whether reported apparent KD of MS2 coat protein for GCAGUGGCGGUAGGAUAUCUAGGAUAUGGGAAAGACUAAGUCUGUAGGUCACCUAACCCAGAAGGAGAGAAGGACCCUGUAAGG [pwkr ssNG2 2FMN + F9.21] (Eterna round: R96, puzzle: Same State NG 2) sits at 90 nM or higher.
True

Assess whether reported apparent KD of MS2 coat protein for AUAAAACAUGAGGAUCACCCAUGUAGACGGAGAAACGUCACAUAGGAUAUAGUCAGCGGCGUUGACUAGAAGGGUGGUAGAAAA [Qubeedbi] (Eterna round: R96, puzzle: Same State NG 3) sits at 90 nM or higher.
True
